Below is a list of entries, each paired with its recorded PBM 8-mer E-score value.
system: MvaT; experiment: PBM 8-mer E-score (mean of HK and ME arrays) (E-score (dimensionless, -0.5 to 0.5)); higher = stronger relative binding preference
Whole data set: some 33,000 sequences, median “E-score (dimensionless, -0.5 to 0.5)” near -0.058, cut for the highest 2% near 0.35. The list comes from a sample in which the highest values are over-represented; it also holds close analogues and randomly drawn sequences.
Please respond with just the number, no unit label.

// below: answered sequences
Query PBM 8-mer E-score for GTAATAAC
0.297

Query PBM 8-mer E-score for TTAATAAA
0.432

Query PBM 8-mer E-score for AATTCTGG
0.076

Query PBM 8-mer E-score for GCATACCA
-0.104

Query PBM 8-mer E-score for GCAGGACC
-0.179

Now consider the entry below.
Query PBM 8-mer E-score for ATCATAAG
0.161

* * *

test system: MvaT; assay: PBM 8-mer E-score (mean of HK and ME arrays) (E-score (dimensionless, -0.5 to 0.5)); higher = stronger relative binding preference
Over roughly 33,000 sequences, “E-score (dimensionless, -0.5 to 0.5)” has its median near -0.058; the highest 2% begin near 0.35. The sample as a whole holds a higher share of the highest values than the screen did.
readout-type: PBM 8-mer E-score

// below: answered sequences
Query PBM 8-mer E-score for AATTATCC
0.296

Query PBM 8-mer E-score for GTATTAGA
0.267

Query PBM 8-mer E-score for TAGTTAGA
0.178

Query PBM 8-mer E-score for AGTTGCAT
0.182

Query PBM 8-mer E-score for ACCTGTCG
-0.277

Continuing:
Query PBM 8-mer E-score for AATAAAGG
0.228

Query PBM 8-mer E-score for CTATGTTA
0.278

Query PBM 8-mer E-score for CACGTCTC
-0.173

Query PBM 8-mer E-score for ATATTACC
0.293

* * *

Below is a list of entries, each paired with its recorded PBM 8-mer E-score value.
test system: MvaT; experiment: PBM 8-mer E-score (mean of HK and ME arrays) (E-score (dimensionless, -0.5 to 0.5)); higher = stronger relative binding preference
The full ranking holds about 33,000 sequences; the median of “E-score (dimensionless, -0.5 to 0.5)” is about -0.058, and the highest 2% start at about 0.35. The full list was thinned out, with the highest values kept by preference.
Please respond with just the number, no unit label.

Query PBM 8-mer E-score for CAATATTG
0.377

Query PBM 8-mer E-score for TCCCACAA
0.0216

Continuing:
Query PBM 8-mer E-score for GAATATTA
0.4

Query PBM 8-mer E-score for CAATATCG
0.18

Query PBM 8-mer E-score for CGCGCATA
0.113

Query PBM 8-mer E-score for GAGCAGGC
-0.379

Query PBM 8-mer E-score for TGTTTTAA
0.302

Query PBM 8-mer E-score for AGATATAC
0.155

Query PBM 8-mer E-score for AAATACTG
0.244

Query PBM 8-mer E-score for CTCTATTC
-0.0516

Query PBM 8-mer E-score for CTCCGGTA
-0.227

Query PBM 8-mer E-score for CAAGCACG
-0.238

* * *

Below is a list of entries, each paired with its recorded PBM 8-mer E-score value.
tested on: MvaT; assay: PBM 8-mer E-score (mean of HK and ME arrays) (E-score (dimensionless, -0.5 to 0.5)); higher = stronger relative binding preference
Whole data set: some 33,000 sequences, median “E-score (dimensionless, -0.5 to 0.5)” near -0.058, cut for the highest 2% near 0.35. The entries come from a sample that favours the highest values as a whole.
Please respond with just the number, no unit label.

Query PBM 8-mer E-score for CAATCGGA
-0.0769

Continuing:
Query PBM 8-mer E-score for ATAATAAC
0.422

Query PBM 8-mer E-score for CTAATAAC
0.326

* * *

test system: MvaT; assay: PBM 8-mer E-score (mean of HK and ME arrays) (E-score (dimensionless, -0.5 to 0.5)); higher = stronger relative binding preference
In all, about 33,000 sequences were measured (“E-score (dimensionless, -0.5 to 0.5)”: median about -0.058, highest 2% from about 0.35 on). The list comes from a sample in which the highest values are over-represented; it also holds close analogues and randomly drawn sequences.
Param threshold (0.3) applies to PBM 8-mer E-score; output label 1 when value >= threshold, label 0 when value < threshold.

Some solved cases for reference:
Check this sequence for PBM 8-mer E-score at or above 0.3: TAATACTA
label 1

Check this sequence for PBM 8-mer E-score at or above 0.3: GCGATTCC
label 0

Check this sequence for PBM 8-mer E-score at or above 0.3: ATGTCCTG
label 0

Check this sequence for PBM 8-mer E-score at or above 0.3: ATGTCGAC
label 0

Check this sequence for PBM 8-mer E-score at or above 0.3: CATAATAC
label 1

Continuing:
Check this sequence for PBM 8-mer E-score at or above 0.3: AATAAAAT
label 1

Check this sequence for PBM 8-mer E-score at or above 0.3: CATATTTA
label 1

Check this sequence for PBM 8-mer E-score at or above 0.3: GATATTTA
label 1

* * *

system: MvaT; experiment: PBM 8-mer E-score (mean of HK and ME arrays) (E-score (dimensionless, -0.5 to 0.5)); higher = stronger relative binding preference
Over roughly 33,000 sequences, “E-score (dimensionless, -0.5 to 0.5)” has its median near -0.058; the highest 2% begin near 0.35. The sample as a whole holds a higher share of the highest values than the screen did.
readout-type: PBM 8-mer E-score

// below: answered sequences
Tell me its PBM 8-mer E-score on MvaT: AAAAAGTC
0.17

Tell me its PBM 8-mer E-score on MvaT: AGCTTCCA
-0.151

Tell me its PBM 8-mer E-score on MvaT: CCTCATAA
-0.0267

Continuing:
Tell me its PBM 8-mer E-score on MvaT: CAGTGGAC
0.0119

* * *

test system: MvaT; experiment: PBM 8-mer E-score (mean of HK and ME arrays) (E-score (dimensionless, -0.5 to 0.5)); higher = stronger relative binding preference
Whole data set: some 33,000 sequences, median “E-score (dimensionless, -0.5 to 0.5)” near -0.058, cut for the highest 2% near 0.35. Only a selection was taken, and the highest values are over-represented in it overall.
readout-type: PBM 8-mer E-score
Please respond with just the number, no unit label.

// below: answered sequences
Query PBM 8-mer E-score for CTGTGTGC
0.0347

Query PBM 8-mer E-score for TCAATAAA
0.22

Query PBM 8-mer E-score for GATACTAA
0.213

Now consider the entry below.
Query PBM 8-mer E-score for AAATGACT
0.114

* * *

tested on: MvaT; assay: PBM 8-mer E-score (mean of HK and ME arrays) (E-score (dimensionless, -0.5 to 0.5)); higher = stronger relative binding preference
Whole data set: some 33,000 sequences, median “E-score (dimensionless, -0.5 to 0.5)” near -0.058, cut for the highest 2% near 0.35. What follows is part of a selection rich in the highest values, with near analogues and random picks from the rest.
Below is a list of entries, each paired with its recorded PBM 8-mer E-score value.
Please respond with just the number, no unit label.

Tell me its PBM 8-mer E-score on MvaT: TAATACAA
0.397

Continuing:
Tell me its PBM 8-mer E-score on MvaT: ATGTAAAT
0.327

Tell me its PBM 8-mer E-score on MvaT: CAATACAA
0.199

Tell me its PBM 8-mer E-score on MvaT: ATATGTCG
0.22

Tell me its PBM 8-mer E-score on MvaT: GAATACTA
0.212

Tell me its PBM 8-mer E-score on MvaT: AAAATATA
0.43

Tell me its PBM 8-mer E-score on MvaT: ATATTACA
0.386

Tell me its PBM 8-mer E-score on MvaT: AAACTATC
0.301

Tell me its PBM 8-mer E-score on MvaT: CATTAGTA
0.191

Tell me its PBM 8-mer E-score on MvaT: CTATTACA
0.267

Tell me its PBM 8-mer E-score on MvaT: CTATTAGC
0.136

Tell me its PBM 8-mer E-score on MvaT: AACCTTAC
-0.0526

Tell me its PBM 8-mer E-score on MvaT: GACTAATA
0.297

Tell me its PBM 8-mer E-score on MvaT: AACCAGGC
-0.183

Tell me its PBM 8-mer E-score on MvaT: CGTGGATA
0.112

Tell me its PBM 8-mer E-score on MvaT: AAGTTATA
0.442

Tell me its PBM 8-mer E-score on MvaT: GAACTAAA
0.338

Tell me its PBM 8-mer E-score on MvaT: CCATCAAC
-0.145

Tell me its PBM 8-mer E-score on MvaT: CATTATAG
0.277

Tell me its PBM 8-mer E-score on MvaT: AGTTACTG
0.282

Tell me its PBM 8-mer E-score on MvaT: GATTATAA
0.41

Tell me its PBM 8-mer E-score on MvaT: AATAAAAG
0.309

Tell me its PBM 8-mer E-score on MvaT: AAATTCCG
0.108

Tell me its PBM 8-mer E-score on MvaT: CTGCGCAA
-0.0818

Tell me its PBM 8-mer E-score on MvaT: AATTATAC
0.342
